Target: T1, human TrkA receptor (native, on TF-1 cells) (human, UniProt P04629 33-796)
T1 construct: also called TF1 expressing TrkA receptor; TF-1 cell line expressing human TrkA receptor
T1 sequence (P04629 33-796 limits assumed): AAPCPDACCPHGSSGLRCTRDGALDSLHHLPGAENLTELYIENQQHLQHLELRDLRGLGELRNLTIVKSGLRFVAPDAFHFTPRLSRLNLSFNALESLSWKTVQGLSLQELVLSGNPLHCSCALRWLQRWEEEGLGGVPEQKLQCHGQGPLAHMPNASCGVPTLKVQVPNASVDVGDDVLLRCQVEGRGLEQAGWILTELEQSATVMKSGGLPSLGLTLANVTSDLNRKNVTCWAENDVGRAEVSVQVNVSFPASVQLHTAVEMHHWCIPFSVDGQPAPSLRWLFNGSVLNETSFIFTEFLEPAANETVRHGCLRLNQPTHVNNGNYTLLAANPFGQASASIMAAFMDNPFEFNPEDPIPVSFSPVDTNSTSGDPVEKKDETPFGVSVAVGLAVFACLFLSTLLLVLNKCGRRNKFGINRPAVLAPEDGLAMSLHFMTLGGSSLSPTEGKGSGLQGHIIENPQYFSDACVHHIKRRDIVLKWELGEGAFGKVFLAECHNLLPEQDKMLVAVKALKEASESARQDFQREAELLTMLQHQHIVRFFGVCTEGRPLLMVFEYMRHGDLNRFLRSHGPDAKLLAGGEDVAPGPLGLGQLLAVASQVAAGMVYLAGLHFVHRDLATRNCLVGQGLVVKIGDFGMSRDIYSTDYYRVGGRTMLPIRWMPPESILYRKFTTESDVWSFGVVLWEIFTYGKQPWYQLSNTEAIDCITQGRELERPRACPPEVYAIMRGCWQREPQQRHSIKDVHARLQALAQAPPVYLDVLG
Assay: chip-based flow cytometry (Agilent Bioanalyzer 2100) on TF-1 cells expressing human TrkA; scFv at 5 µg/ml per paragraph 159
Experimental Readout: binding result

Binder	Measured Result
anti-TrkA scFv CRB0036 (scFv, From mSPLINT selection) scFv: DIVMTQAAPSVPVTPGESVSISCRSSKSLLHSSGITSLYWYLQRPGQSPQLPIYRMSSLASGVPDRFSVSGSGTAFTLRISRVEAEDVGVYYCMQHLEYPLTFGAGTKLELKRSGGSTSGSGKPGSGEGSSGTQVQLQQSGAELLKPGASVKISCKATGYTFSNYWIEWVKQRPGHGLEWIGEILPGSGSAHYSEKFKDKATFTADTSSNTAYMQLSSLTSEDSAVYFCTRSPPNPGYWGQGTSVTVSS	binds
anti-TrkA scFv CRB0084 (scFv, From hSPLINT_09 selection) scFv: QPVLTQPPSVSVAPRQTATITCGGNYIGSKSVHWYQQKPGQDPVLVVNDDSDRPSGIPERFSGSNSANTATLTISGVEAGDEADYYCQVWDSSTEPVVFGGGTKLTVLSGGSTSGSGKPGSGEGSSGTQVQLQQWGAGLLRPSETLSLTCTVSGGSFSDSYWTWIRQSPGKGLEWIGENNHRGSTNYSPTLRSRLSISIDSSKNQFSLKLSSVTAADTAVYYCARVPYRLRSRIFDVWGQGTMVTVSS	binds
anti-TrkA scFv CRB0089 (scFv, From hSPLINT_09 selection) scFv: QTVVTQEPSVSGAPGQRVTISCTGSSSIIGAGYEVHWYQHLPGTAPKLLIYDSINRPSGVPDRFSGSKSGTSASLAITGLQAEDEADYYCQSSAIFGGGTKLTVLSGGSTSGSGKPGSGEGSSGTQVQLQESGPGLVKPSQTLSLTCAISGDSVSSNSAAWNWIRQSPSRGLEWLGRTFHRSRWYNEYPVSVRSRITINPDTSNNQFTLQLNSVTPDDTAVYYCARAPVAGLTFDIWGQGTMVTVSS	binds
anti-TrkA scFv CRB0088 (scFv, From hSPLINT_09 selection) scFv: QPVLTQSPPASASLGASVKLTCTLSSGHSSYAIAWHQQQPEKGPRYLMKVNSDGSHNKGDGIPDRFSGSRSGAERYLTISSLHSEDEADYYCQTWGAGGVVFGGGTKLTVLSGGSTSGSGKPGSGEGSSGTEVQLLESGGGLVQPGGSLRLSCAASGFTFSDHYMDWVRQAPGKGLEWVGRIRNKANSYTTEYAASVKGRFTISRDDSKKTLYLQMTSLKTDDTALYYCARDLGASDAFDLWGQGTMVTVSS	binds
anti-TrkA scFv CRB0069 (scFv, From hSPLINT_09 selection) scFv: QPGLTQPPSASGTPGQRVTISCTGSSSNVGAGYTVHWYQQLPGTAPTLLIYDNNNRPSGVPDRFSGSRSGTSASLAITGLRAEDEADYYCQSYDRSRVYVFGTGTKLTVLSGGSTSGSGKPGSGEGSSGTQVQLQQSGPGLVKPSQTLSLTCAISGDSVSSNSAAWNWIRQSPSRGLERLGRTYYRSKWYNDYAESVKSRIIINSGTSKNQFSLHLNSVTPEDTAVYYCGRAKDGWYDAFDIWGQGTTVTVSS	binds
anti-TrkA scFv CRB0072 (scFv, From hSPLINT_09 selection) scFv: DIQMTQSPISLSATVGDRVTITCRASQSIGRYLNWYQQKPGKAPKLLIYGASSLESGVPSRFSGSGSGTVFTLTISGLQPEDFATYCCQQSHSTAWTFGQGTKVEIKSGGSTSGSGKPGSGEGSSGTEVQLVETGGGLVQPGSSLRLSCATSGFTFINYGVHWVRQPPGKGLEWVASIWYEGSNEKYADSVKGRFTISRDNSRYTLHLQLNSLRAEDTADYYCVRDRGTGDYRNSRFYYGMDVWGQGTTVTVSS	binds
anti-TrkA scFv CRB0022 (scFv, From mSPLINT selection) scFv: DIVLTQSPALMSASPGEKVTMTCSASSSVSYMYWYQQKPRSSPKPWIYLTSNLASGVPARFSGSGSGTSYSLTISSMEAEDAATYYCQQWSSNPYTFGGRTRLEIKPSGGSTSGSGKPGSGEDSSGAQVQLQQSGAELVKPGASVELSCTASGFNIKDTYMHWVKQRPEQGLEWIGGIDPANGNTIYVPKFQGKATITADTSSNTAYLQLSSLTSEDTAVYYCARGGYDFDYAMDYWGQGTSVTVSS	binds
